biological target: human serotonin transporter (hSERT) (Homo sapiens, UniProt P31645); construct: expressed in transfected cells; host or cells: HEK-293, stably transfected; assay: Radioligand binding to cloned hSERT, [3H]citalopram, HEK-293 cell membranes; settings: Geometric Mean ± SEM; HCl salts; read-out: Equilibrium Dissociation Constant (KD) for Transporter Binding, hSERT (S)
Sequence (P31645 whole entry): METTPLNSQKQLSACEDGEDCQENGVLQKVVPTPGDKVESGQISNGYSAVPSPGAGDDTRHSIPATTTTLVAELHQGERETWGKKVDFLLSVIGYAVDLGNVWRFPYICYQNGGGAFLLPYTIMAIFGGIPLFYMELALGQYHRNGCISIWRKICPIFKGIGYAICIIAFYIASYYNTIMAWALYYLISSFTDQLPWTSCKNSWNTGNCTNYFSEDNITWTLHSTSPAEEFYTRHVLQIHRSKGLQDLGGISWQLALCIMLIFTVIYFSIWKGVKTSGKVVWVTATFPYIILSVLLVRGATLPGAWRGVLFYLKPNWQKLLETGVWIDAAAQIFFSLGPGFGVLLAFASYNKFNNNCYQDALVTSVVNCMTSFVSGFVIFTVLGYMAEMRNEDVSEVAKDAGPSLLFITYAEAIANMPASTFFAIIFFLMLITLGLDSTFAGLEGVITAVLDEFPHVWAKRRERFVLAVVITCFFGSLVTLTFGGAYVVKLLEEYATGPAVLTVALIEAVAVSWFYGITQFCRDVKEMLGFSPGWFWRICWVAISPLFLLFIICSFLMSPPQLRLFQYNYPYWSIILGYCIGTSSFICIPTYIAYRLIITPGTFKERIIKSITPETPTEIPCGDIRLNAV
Please provide measured Kd for the entries that follow.
Give bare numbers, in nM.

A selection of reference data follows.
{"columns": ["smi", "Kd (nM)"],
 "data": [
  ["CN1CN[C@H](c2ccccc2)[C@@H](c2ccc3ccccc3c2)C1", 0.26],
  ["CNC[C@@H](c1ccc2ccccc2c1)[C@H](N)c1ccccc1", 180]
]}

// switching to the query compound
Query: Request the reported Kd associated with CNC[C@@H](c1ccc2ccccc2c1)[C@H](N=[N+]=[N-])c1ccccc1
Reply: 380

Attribution: patent US8440724B2
